The reported numbers originate from ChEMBL document CHEMBL1201862.

Experiment: non-specific 3'UTR reporter inhibition in Clone20-Shn3RL – cell-based, Renilla luciferase, cherry-picked, counter-screen for Shn3 inhibitor project, dose response (AID 624133)
Assay type: functional
Calls of active or inactive are those of the source.
endpoint-name: AC50

1) CCN(CC)S(=O)(=O)c1ccc(NC(=O)Nc2cccc(C(F)(F)F)c2)cc1 : 10.8 µM (active)
2) CC(=O)c1ccc(N2CCC(c3cc(-c4ccc(Cl)cc4)[nH]n3)CC2)c([N+](=O)[O-])c1 : 20 µM (active)
3) O=C(Nc1cccc(C(F)(F)F)c1)Nc1ccc(N2CCCC2)c(S(=O)(=O)Nc2ccccc2Cl)c1 : 5.49 µM (active)
4) CCCNC(=O)c1nnsc1S(=O)(=O)c1ccc(Cl)cc1 : 2.88 µM (active)

---

Assay: viability of uninfected HEp-2 cells – cell-based, HTS, cytotoxicity control for RSV inhibitor project, dose response (AID 2410)
Format: functional
Settings: human respiratory syncytial virus
Activity calls are given as the source filed them.
endpoint-name: CC50

1. COc1ccc(-c2c(C#Cc3ccccc3)c3ccccc3n2C)cc1 : 44 µM (active)
2. N#Cc1nc(-c2cccc3ccccc23)oc1NCC1CCCO1 (configuration not stated) : 21.7 µM (active)
3. COc1ccc(/C=C/C(=O)c2ccc(C)c([N+](=O)[O-])c2)cc1O : 15.8 µM (active)
4. Cc1cccc2nc(-c3cccc(NC(=O)Cc4ccccc4)c3)cn12 : 42.8 µM (active)
5. O=C(Nc1cccc(NC(=O)c2ccc(-c3cccc(Br)c3)o2)c1)c1ccco1 : 16 µM (active)
6. Cc1nc2c(ccc3nc(NC(=O)Cc4cccc5ccccc45)sc32)s1 : 12.2 µM (active)
7. CCCOc1ccc(NC(=O)CC2C(=O)N(CC)C(=S)N2CCCN2CCN(Cc3ccccc3)CC2)cc1 (configuration not stated) : 14.3 µM (active)

---

Target: UniProtKB P49327
Sequence (P49327 whole entry): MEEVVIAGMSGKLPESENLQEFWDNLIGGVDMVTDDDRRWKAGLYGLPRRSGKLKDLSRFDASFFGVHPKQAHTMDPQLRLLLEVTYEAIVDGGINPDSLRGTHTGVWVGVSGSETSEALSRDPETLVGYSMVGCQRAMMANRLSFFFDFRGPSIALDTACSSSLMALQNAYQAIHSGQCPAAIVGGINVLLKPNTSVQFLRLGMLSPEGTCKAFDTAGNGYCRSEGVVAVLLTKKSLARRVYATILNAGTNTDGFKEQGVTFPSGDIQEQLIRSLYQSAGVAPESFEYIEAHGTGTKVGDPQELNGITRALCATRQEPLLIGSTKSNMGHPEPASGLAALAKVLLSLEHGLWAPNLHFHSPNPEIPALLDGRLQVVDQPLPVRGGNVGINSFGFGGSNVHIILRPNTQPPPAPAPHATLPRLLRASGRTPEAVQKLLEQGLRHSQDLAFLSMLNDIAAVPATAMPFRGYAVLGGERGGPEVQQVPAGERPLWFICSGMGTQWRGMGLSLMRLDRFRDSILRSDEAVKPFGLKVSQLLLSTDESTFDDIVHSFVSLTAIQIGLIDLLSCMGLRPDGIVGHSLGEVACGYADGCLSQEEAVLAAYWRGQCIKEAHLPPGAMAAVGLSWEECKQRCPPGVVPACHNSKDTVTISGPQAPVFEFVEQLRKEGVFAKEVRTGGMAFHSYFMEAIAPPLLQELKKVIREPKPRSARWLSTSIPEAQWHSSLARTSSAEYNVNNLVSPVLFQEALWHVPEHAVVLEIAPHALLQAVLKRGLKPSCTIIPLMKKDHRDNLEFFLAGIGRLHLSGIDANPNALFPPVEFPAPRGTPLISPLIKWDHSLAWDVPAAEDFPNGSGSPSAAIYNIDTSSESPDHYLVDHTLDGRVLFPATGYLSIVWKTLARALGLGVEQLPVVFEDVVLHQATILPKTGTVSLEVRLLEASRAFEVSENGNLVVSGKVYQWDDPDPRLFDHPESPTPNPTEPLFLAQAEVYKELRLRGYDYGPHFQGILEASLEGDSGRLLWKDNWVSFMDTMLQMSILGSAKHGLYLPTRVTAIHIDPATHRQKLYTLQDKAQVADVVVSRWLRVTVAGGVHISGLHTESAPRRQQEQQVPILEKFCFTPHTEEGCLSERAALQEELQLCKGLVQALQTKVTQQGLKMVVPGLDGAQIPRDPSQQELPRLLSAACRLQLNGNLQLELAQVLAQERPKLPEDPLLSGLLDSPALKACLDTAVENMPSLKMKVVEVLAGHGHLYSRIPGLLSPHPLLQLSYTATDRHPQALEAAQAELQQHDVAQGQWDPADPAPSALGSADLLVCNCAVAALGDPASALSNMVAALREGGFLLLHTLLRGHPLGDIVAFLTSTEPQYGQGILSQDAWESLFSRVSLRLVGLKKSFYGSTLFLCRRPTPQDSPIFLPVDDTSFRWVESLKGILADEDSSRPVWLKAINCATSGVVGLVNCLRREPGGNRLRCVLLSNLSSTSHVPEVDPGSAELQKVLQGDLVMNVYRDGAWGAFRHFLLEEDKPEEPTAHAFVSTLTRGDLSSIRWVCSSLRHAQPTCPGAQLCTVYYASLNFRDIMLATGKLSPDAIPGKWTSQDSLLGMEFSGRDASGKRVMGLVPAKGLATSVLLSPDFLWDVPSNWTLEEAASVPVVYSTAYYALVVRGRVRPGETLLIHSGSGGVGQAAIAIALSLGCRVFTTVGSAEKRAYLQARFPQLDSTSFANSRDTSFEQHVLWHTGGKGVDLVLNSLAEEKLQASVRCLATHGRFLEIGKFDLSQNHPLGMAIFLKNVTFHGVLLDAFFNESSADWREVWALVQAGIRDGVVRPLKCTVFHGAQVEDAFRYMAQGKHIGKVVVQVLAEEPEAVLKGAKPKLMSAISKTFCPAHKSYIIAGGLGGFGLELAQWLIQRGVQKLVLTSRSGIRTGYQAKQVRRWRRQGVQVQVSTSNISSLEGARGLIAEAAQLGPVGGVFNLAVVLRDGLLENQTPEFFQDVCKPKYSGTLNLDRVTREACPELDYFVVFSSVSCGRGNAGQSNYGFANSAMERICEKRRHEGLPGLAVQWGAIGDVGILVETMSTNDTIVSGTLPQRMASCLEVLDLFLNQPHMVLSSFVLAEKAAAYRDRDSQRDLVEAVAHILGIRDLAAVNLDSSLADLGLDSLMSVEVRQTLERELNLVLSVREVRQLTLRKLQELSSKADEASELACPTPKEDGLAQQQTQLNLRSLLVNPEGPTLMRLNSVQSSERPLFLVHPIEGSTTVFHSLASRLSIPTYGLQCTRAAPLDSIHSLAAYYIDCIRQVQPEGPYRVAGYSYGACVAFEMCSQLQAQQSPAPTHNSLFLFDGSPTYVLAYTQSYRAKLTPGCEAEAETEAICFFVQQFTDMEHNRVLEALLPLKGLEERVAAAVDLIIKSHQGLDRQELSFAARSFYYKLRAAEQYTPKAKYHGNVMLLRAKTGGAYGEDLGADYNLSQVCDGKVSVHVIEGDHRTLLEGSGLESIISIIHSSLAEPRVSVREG
Experiment: inhibition of human FAS-TE enzyme activity – biochemical, endpoint fluorescence intensity, uHTS hits, dose response (AID 624327);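 note: fluorescence from hydrolysis of an O-methyl fluorescein acyl ester substrate by the enzyme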
Format: functional
Active and inactive are the calls of the source.
Measured IC50 by item
endpoint-name: IC50

1) CSC(=Nc1ccccc1)N=C(SCc1ccccc1)N(C)C : 1.37 µM (active)
2) CCCNC(=O)c1nnsc1S(=O)(=O)c1ccc(Cl)cc1 : 12.7 µM (active)
3) CCOc1ccc(C2CC(=O)N(Nc3ccc([N+](=O)[O-])cc3[N+](=O)[O-])C2=O)cc1 (stereo unspecified) : 1.84 µM (active)
4) Cc1c([N+](=O)[O-])cc(S(=O)(=O)Nc2ccc(-c3ccc(N4CCCC4)nn3)cc2)cc1[N+](=O)[O-] : 0.867 µM (active)
5) O=S(=O)(c1ccc(N2CCC(c3ccc(Cl)cc3)=N2)cc1)N(CCO)CCO : 0.434 µM (active)
6) CCCCN(C=O)c1c(CC)nc2c(OCc3ccc(Cl)cc3Cl)cccn12 : 6.01 µM (active)
7) CC(C)[C@H](NC(=O)OC(C)(C)C)c1nnc(S(=O)(=O)Cc2c(F)cccc2Cl)o1 : 3.02 µM (active)
8) CCNc1ccc(S(=O)(=O)N(C)C)cc1NCC(=O)Nc1ccc(F)c(Cl)c1 : 12.4 µM (active)
9) O=C(COC(=O)c1cc(F)c(F)cc1Cl)NC1CCCCCC1 : 13.1 µM (active)
10) CC(C)(C)c1ccc(COC(=O)CN2C(=O)NC3(CCCC3)C2=O)cc1 : 4.84 µM (active)
11) CCn1cc(C(=O)NCc2ccco2)c(=O)c2cc(S(=O)(=O)N3CCC(C)CC3)ccc21 : 2.6 µM (active)
